Test system: HOS
method_summary: Cytotoxicity against human HOS cells after 72 hrs by calcein acetoxymethyl assay
Assay type: functional, cell-based
condition: Homo sapiens, HOS, 72 h
readout_label: IC50

structure_smiles_string=OC[C@@H]1O[C@H](n2cnc3c(NCc4ccc(F)cc4)ncnc32)[C@@H](O)[C@H]1O value_reported="> 50 µM"

# ---- query compound ----
Problem: I'd like to know its IC50. The compound in question is OC[C@@H]1O[C@H](n2cnc3c(NCc4ccc(OC(F)(F)F)cc4)ncnc32)[C@@H](O)[C@H]1O
Result: > 50 µM
